System: KM12 colon
procedure-text: NCI tumour cell line growth inhibition, 48 h; in the data active = GI50 below about 0.43 µM; inactive = the rest
Classes used: 1 (active), -1 (inactive)

molecule | assigned-category
O=C(c1ccccc1)N(C(=S)NCCc1ccc(Cl)cc1)c1ccc(Cl)cc1 | -1
COc1ccc2cnc(N)c(C#Cc3cc(C(=O)Nc4ccc(CN5CCN(C)CC5)c(C(F)(F)F)c4)cnc3C)c2c1 | 1
COc1cc(/C=C\c2cc(/C=C\c3ccc(O)c(OC)c3)n(C(=O)COc3ccc(Cl)cc3Cl)n2)ccc1O | -1
COc1ccc2c3c([nH]c2c1)C(=O)c1nc(C)ccc1C3=O | -1
Cc1ccc(C2CC(c3cccc(Nc4ccncc4)c3)=NN2c2cc(Cl)cc(Cl)c2)cc1 (stereo not drawn) | -1
COc1cccc(CNCCN2C(=O)c3ccc4c5c(ccc(c35)C2=O)C(=O)N(CCNCc2cccc(OC)c2)C4=O)c1 | -1
O=S(=O)(Nc1cccc(Cl)c1)c1ccc(-c2cnc(C3CC3)o2)cc1 | -1
CC[C@H](C)[C@H](NC(=O)C12CC(NC)(C1)C2)C(=O)N(C)[C@H](C[C@@H](OC(C)=O)c1nc(C(=O)N[C@@H](Cc2ccccc2)C[C@H](C)C(=O)OC)cs1)C(C)C | 1
